- Experimental details: Blood clearance in human by measuring intrinsic clearance in human liver microsomes by MS/MS analysis
- Assay type: ADME
Measurement name: CLhep predicted
Answers without a unit are incomplete; give the number and then its unit.

Task: Given the molecule CCn1c(=O)c2c(C)c(C(=O)N3CCC(O)CC3)sc2n(CCC(F)(F)F)c1=O , what is its reported CLhep predicted?
Result: 3.67 mL/min/kg

====

- Target or system: Adenosine receptor A2a (Homo sapiens, UniProt P29274)
- Sequence (P29274 whole entry): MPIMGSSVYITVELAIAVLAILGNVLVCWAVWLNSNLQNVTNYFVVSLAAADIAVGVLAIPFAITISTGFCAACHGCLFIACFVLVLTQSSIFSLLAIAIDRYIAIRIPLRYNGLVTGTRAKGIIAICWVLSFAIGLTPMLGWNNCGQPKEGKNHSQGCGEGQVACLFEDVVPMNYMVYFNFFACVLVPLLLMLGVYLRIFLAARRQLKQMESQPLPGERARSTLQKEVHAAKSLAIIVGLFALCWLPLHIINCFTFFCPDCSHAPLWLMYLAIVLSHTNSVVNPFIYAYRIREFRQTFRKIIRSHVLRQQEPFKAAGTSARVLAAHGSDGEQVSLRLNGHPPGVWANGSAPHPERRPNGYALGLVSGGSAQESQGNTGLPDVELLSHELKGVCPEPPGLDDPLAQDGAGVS
- Experimental details: Antagonist activity at recombinant human A2A adenosine receptor expressed in CHO cells after 3 to 4 hrs by luciferase reporter gene assay
Measurement name: pIC50
pIC50 is defined as minus the log10 of a concentration measured in mol/L.

Task: Given the molecule CCn1c(=O)c2c(C)c(C(=O)N3CCC(O)CC3)sc2n(CCC(F)(F)F)c1=O , what is its reported pIC50?
Result: 6.09

====

- Target or system: UniProtKB P29275
- Sequence (P29275 whole entry): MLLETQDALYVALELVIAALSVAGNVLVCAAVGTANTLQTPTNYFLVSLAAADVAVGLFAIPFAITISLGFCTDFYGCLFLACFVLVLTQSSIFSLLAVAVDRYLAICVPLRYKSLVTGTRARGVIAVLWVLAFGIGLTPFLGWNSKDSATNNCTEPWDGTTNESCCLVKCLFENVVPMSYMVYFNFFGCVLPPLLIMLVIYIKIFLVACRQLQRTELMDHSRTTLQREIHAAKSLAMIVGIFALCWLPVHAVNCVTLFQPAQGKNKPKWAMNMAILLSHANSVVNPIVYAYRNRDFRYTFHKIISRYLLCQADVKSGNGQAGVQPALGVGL
- Experimental details: Displacement of [3H]DPCPX from human A2B adenosine receptor expressed in HEK293 cell membranes after 60 mins by radioligand displacement assay
I'd be grateful if you could share measured IC50 for these entries.
Supply the numeric figure in nM, leaving out any unit text.

Task: Given the molecule COCCn1c(=O)n(CCc2ccccc2)c(=O)c2c3c(sc21)CCCC3 , what is its reported IC50?
Result: 490

Task: Given the molecule COCCn1c(=O)n(CCc2ccccc2)c(=O)c2c(C)c(C(=O)C3CC3)sc21 , what is its reported IC50?
Result: 790

Task: Given the molecule COCCn1c(=O)n(CC(F)(F)c2ccccc2)c(=O)c2c(C)csc21 , what is its reported IC50?
Result: 440

Task: Given the molecule CCn1c(=O)c2c(C)c(C(=O)N3CC(O)C3)sc2n(CCC(F)(F)F)c1=O , what is its reported IC50?
Result: 200

Task: Given the molecule COCCn1c(=O)n(CCc2ccccc2F)c(=O)c2c(C)csc21 , what is its reported IC50?
Result: 210

Task: Given the molecule COCCn1c(=O)n(CCc2ccccc2)c(=O)c2c(C)c(C(=O)c3ccccc3)sc21 , what is its reported IC50?
Result: 2300

Task: Given the molecule COCCn1c(=O)n(CCc2cccnc2)c(=O)c2c(C)csc21 , what is its reported IC50?
Result: 280

Task: Given the molecule COCCn1c(=O)n(CCc2ccccc2)c(=O)c2c3c(sc21)CCC3 , what is its reported IC50?
Result: 97

Task: Given the molecule COCCn1c(=O)n(CCc2ccccc2)c(=O)c2c(C)c(CN3CCOCC3)sc21 , what is its reported IC50?
Result: 760

====

- Target or system: Adenosine receptor A2b (Homo sapiens)
- Sequence (P29275 whole entry): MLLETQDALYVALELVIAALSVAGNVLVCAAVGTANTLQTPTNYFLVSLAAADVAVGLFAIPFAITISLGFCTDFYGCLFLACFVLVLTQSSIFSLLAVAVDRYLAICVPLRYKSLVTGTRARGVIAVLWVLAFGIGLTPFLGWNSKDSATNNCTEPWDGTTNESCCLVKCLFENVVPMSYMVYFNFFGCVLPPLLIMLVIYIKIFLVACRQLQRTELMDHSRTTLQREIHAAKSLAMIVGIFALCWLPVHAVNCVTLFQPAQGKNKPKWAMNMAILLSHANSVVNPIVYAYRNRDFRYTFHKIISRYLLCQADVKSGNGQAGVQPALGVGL
- Experimental details: Antagonist activity at recombinant human A2B adenosine receptor expressed in CHO cells after 3 to 4 hrs by luciferase reporter gene assay
pEC50: −log10 of the molar value.
Measurement name: pEC50

Task: Reported pEC50 for Adenosine receptor A2b (Homo sapiens), given Cc1csc2c1c(=O)n(CCc1ccccc1)c(=O)n2CC1CCCO1 (racemic) ?
Result: < 5.00

====

- Experimental details: Clearance in mouse plasma at 0.3 mg/kg, iv administered as bolus dose by HPLC-MS/MS analysis
- Assay type: ADME, organism-based
Measurement name: clearance (mL/min/kg)
Supply the numeric figure in mL/min/kg, leaving out any unit text.

Task: Given the molecule CCn1c(=O)c2c(C)c(C(=O)N3CCC(O)CC3)sc2n(CCC(F)(F)F)c1=O , what is its reported clearance?
Result: 10.2

====

- Experimental details: Clearance in rat blood at 0.3 mg/kg, iv administered as bolus dose by HPLC-MS/MS analysis
- Assay type: ADME, organism-based
Measurement name: clearance (mL/min/kg)
Supply the numeric figure in mL/min/kg, leaving out any unit text.

Task: Given the molecule CCn1c(=O)c2c(C)c(C(=O)N3CCC(O)CC3)sc2n(CCC(F)(F)F)c1=O , what is its reported clearance?
Result: 23.3

====

- Experimental details: Oral bioavailability in mouse at 1 mg/kg administered as bolus dose by HPLC-MS/MS analysis
- Assay type: ADME, organism-based
- Measurement context: in vivo
Measurement name: bioavailability (%)
Supply the numeric figure in %, leaving out any unit text.

Task: Given the molecule CCn1c(=O)c2c(C)c(C(=O)N3CCC(O)CC3)sc2n(CCC(F)(F)F)c1=O , what is its reported bioavailability?
Result: 65

====

I'd be grateful if you could share measured Papp A→B for these entries.
- Experimental details: Apparent permeability from apical side to basolateral side in human Caco2 cells
- Type: ADME, cell-based
- Measurement context: Caco-2

Task: Given the molecule CCn1c(=O)c2c(C)c(C(=O)N3CCC(O)CC3)sc2n(CCC(F)(F)F)c1=O , what is its reported Papp A→B?
Result: 48 ×10⁻⁶ cm/s

Task: Given the molecule Cc1csc2c1c(=O)n(CCc1ccccc1)c(=O)n2CC1CCCO1 (stereo in doubt; 7) , what is its reported Papp A→B?
Result: 21 ×10⁻⁶ cm/s

====

- Experimental details: Blood clearance in mouse by measuring intrinsic clearance in mouse liver microsomes by MS/MS analysis
- Assay type: ADME
Measurement name: CLhep predicted (mL/min/kg)
Supply the numeric figure in mL/min/kg, leaving out any unit text.

Task: Given the molecule Cc1csc2c1c(=O)n(CCc1ccccc1)c(=O)n2CC1CCCO1 (stereo in doubt; 7) , what is its reported CLhep predicted?
Result: 81.7

====

- Experimental details: Oral bioavailability in dog at 1 mg/kg for 15 mins by HPLC-MS/MS analysis
- Assay type: ADME, organism-based, Canis lupus familiaris
- Measurement context: in vivo
Measurement name: bioavailability
Answers without a unit are incomplete; give the number and then its unit.

Task: Given the molecule CCn1c(=O)c2c(C)c(C(=O)N3CCC(O)CC3)sc2n(CCC(F)(F)F)c1=O , what is its reported bioavailability?
Result: 79%

====

- Experimental details: Intrinsic clearance in rat hepatocytes by MS/MS analysis
- Format: ADME, cell-based, Hepatocyte
- Measurement context: read-out: CLH (converted)
Measurement name: predicted hepatic clearance (mL/min/kg)
Supply the numeric figure in mL/min/kg, leaving out any unit text.

Task: Given the compound Cc1csc2c1c(=O)n(CCc1cccnc1)c(=O)n2CCC(F)(F)F , what is its reported predicted hepatic clearance?
Result: 66.7

Task: Given the compound CCN(CC)C(=O)c1sc2c(c1N)c(=O)n(C)c(=O)n2C , what is its reported predicted hepatic clearance?
Result: 53.3

Task: Given the compound CCN(CC(C)(C)O)C(=O)c1sc2c(c1C)c(=O)n(CC)c(=O)n2CCC(F)(F)F , what is its reported predicted hepatic clearance?
Result: 35

Task: Given the compound Cc1csc2c1c(=O)n(CCc1ccccc1)c(=O)n2CCC(F)(F)F , what is its reported predicted hepatic clearance?
Result: 66.7

Task: Given the compound COCCn1c(=O)n(CCc2ccccc2)c(=O)c2c(C)c(C(=O)N3CC(O)C3)sc21 , what is its reported predicted hepatic clearance?
Result: 61.7

====

- Experimental details: MRT in mouse at 1 mg/kg, iv administered as bolus dose by HPLC-MS/MS analysis
- Type: ADME, organism-based
- Measurement context: in vivo
Measurement name: MRT (h)
Supply the numeric figure in h, leaving out any unit text.

Task: Given the compound CCn1c(=O)c2c(C)c(C(=O)N3CCC(O)CC3)sc2n(CCC(F)(F)F)c1=O , what is its reported MRT?
Result: 1.2

====

- Experimental details: Blood clearance in human by measuring intrinsic clearance in human hepatocytes by MS/MS analysis
- Format: ADME, cell-based
Measurement name: CLhep predicted

Task: Given the compound CCn1c(=O)c2c(C)c(C(=O)N3CCC(O)CC3)sc2n(CCC(F)(F)F)c1=O , what is its reported CLhep predicted?
Result: < 3.5 mL/min/kg

The origin of these recorded values is ChEMBL document CHEMBL4422615.
